Where these numbers come from: ChEMBL document CHEMBL1933006

# Tested system: Phospho-N-acetylmuramoyl-pentapeptide-transferase (Bacillus subtilis (strain 168), UniProt Q03521)
# Sequence (Q03521 whole entry): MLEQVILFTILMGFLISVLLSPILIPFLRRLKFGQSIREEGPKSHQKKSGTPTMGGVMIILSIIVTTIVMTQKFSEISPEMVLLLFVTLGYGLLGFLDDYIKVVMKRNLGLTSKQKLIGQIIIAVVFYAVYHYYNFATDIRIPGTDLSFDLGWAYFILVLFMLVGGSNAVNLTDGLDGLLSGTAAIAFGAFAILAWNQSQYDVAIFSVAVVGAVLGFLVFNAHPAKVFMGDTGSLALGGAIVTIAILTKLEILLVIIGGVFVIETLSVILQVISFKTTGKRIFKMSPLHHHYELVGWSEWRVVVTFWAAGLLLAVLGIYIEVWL
# Assay procedure: Noncompetitive inhibition of Bacillus subtilis MraY using […] as substrate after 30 mins by Lineweaver-Burk plot
Observable: pKi
By convention, pKi is the negative base-10 log of a molar concentration.

{"Compound": "CC(C)C[C@@H](NC(=O)[C@@H](NC(=O)N[C@H](C(=O)O)C(C)C)[C@@H]1CCN=C(N)N1)C(=O)NCCCN[C@H](C(=O)O)[C@H](O[C@@H]1O[C@H](CN)[C@@H](O)[C@H]1O)[C@H]1O[C@@H](n2ccc(=O)[nH]c2=O)[C@H](O)[C@@H]1O", "pKi": 7.31}

[Q] Form field: reported pKi of CC(C)C[C@H](NC(=O)[C@@H](NC(=O)N[C@H](C(=O)O)C(C)C)[C@@H]1CCN=C(N)N1)C(=O)NCCCN[C@H](C(=O)O)[C@H](O[C@@H]1O[C@H](CN)[C@@H](O)[C@H]1O)[C@H]1O[C@@H](n2ccc(=O)[nH]c2=O)[C@H](O)[C@@H]1O [MURAMYCIN D2]
[A] 8.12

[Q] And what about the compound CCCCCCCCCCCCCCC[C@H](NC(=O)[C@@H](NC(=O)N[C@H](C(=O)O)C(C)C)[C@@H]1CCNC(=N)N1)C(=O)NCCCN[C@H](C(=O)O)[C@H](O[C@@H]1O[C@H](CN)[C@@H](O)[C@H]1O)[C@H]1O[C@@H](n2ccc(=O)[nH]c2=O)[C@H](O)[C@@H]1O ?
[A] 6.61

[Q] And what about the compound CCCCCCCCCCCCCCC[C@@H](NC(=O)[C@@H](NC(=O)N[C@H](C(=O)O)C(C)C)[C@@H]1CCNC(=N)N1)C(=O)NCCCN[C@H](C(=O)O)[C@H](O[C@@H]1O[C@H](CN)[C@@H](O)[C@H]1O)[C@H]1O[C@@H](n2ccc(=O)[nH]c2=O)[C@H](O)[C@@H]1O ?
[A] 6.16

* * *

# Tested system: Phospho-N-acetylmuramoyl-pentapeptide-transferase (Bacillus subtilis (strain 168), UniProt Q03521)
# Assay procedure: Competitive inhibition of Bacillus subtilis MraY using UDP-MurNAc-pentapeptide as substrate after 30 mins by Lineweaver-Burk plot
pKi: recorded values
By convention, pKi is the negative base-10 log of a molar concentration.

{"Compound": "CCCCCCCCCCCCCCC[C@@H](NC(=O)[C@@H](NC(=O)N[C@H](C(=O)O)C(C)C)[C@@H]1CCNC(=N)N1)C(=O)NCCCN[C@H](C(=O)O)[C@H](O[C@@H]1O[C@H](CN)[C@@H](O)[C@H]1O)[C@H]1O[C@@H](n2ccc(=O)[nH]c2=O)[C@H](O)[C@@H]1O", "Observable": "pKi", "Obs value": 6.16}
{"Compound": "CC(C)C[C@H](NC(=O)[C@@H](NC(=O)N[C@H](C(=O)O)C(C)C)[C@@H]1CCN=C(N)N1)C(=O)NCCCN[C@H](C(=O)O)[C@H](O[C@@H]1O[C@H](CN)[C@@H](O)[C@H]1O)[C@H]1O[C@@H](n2ccc(=O)[nH]c2=O)[C@H](O)[C@@H]1O [MURAMYCIN D2]", "Observable": "pKi", "Obs value": 8.12}
{"Compound": "CCCCCCCCCCCCCCC[C@H](NC(=O)[C@@H](NC(=O)N[C@H](C(=O)O)C(C)C)[C@@H]1CCNC(=N)N1)C(=O)NCCCN[C@H](C(=O)O)[C@H](O[C@@H]1O[C@H](CN)[C@@H](O)[C@H]1O)[C@H]1O[C@@H](n2ccc(=O)[nH]c2=O)[C@H](O)[C@@H]1O", "Observable": "pKi", "Obs value": 6.61}

Kindly review the next compound as well.
[Q] Form field: reported pKi of CC(C)C[C@@H](NC(=O)[C@@H](NC(=O)N[C@H](C(=O)O)C(C)C)[C@@H]1CCN=C(N)N1)C(=O)NCCCN[C@H](C(=O)O)[C@H](O[C@@H]1O[C@H](CN)[C@@H](O)[C@H]1O)[C@H]1O[C@@H](n2ccc(=O)[nH]c2=O)[C@H](O)[C@@H]1O
[A] 7.31
